# Test system: OVCAR-8 ovarian
# ASSAY REMARKS: NCI tumour cell line growth inhibition, 48 h
OUTCOME MEASURE: TGI

Solved cases below.
CCOC1Oc2ccccc2-c2nc(SC)ncc21 (stereo not given) | > 100 µM
CC(=O)N1N=C2/C(=C/c3ccc(Cl)cc3)CC(C)CC2C1c1ccc(Cl)cc1 (stereo not given) | > 100 µM
O=C(Nc1ccc(/C=C/c2ccc(NC(=O)c3cc(S(=O)(=O)O)c4cccnc4c3O)cc2S(=O)(=O)O)c(S(=O)(=O)O)c1)c1cc(S(=O)(=O)O)c2cccnc2c1O | > 72.4 µM
COC1(O)c2cccc(Cl)c2C(=O)N1C1(C(N)=O)CCCCC1 (stereo not given) | > 100 µM
O=C(/C(=C\c1ccc(Cl)cc1)c1ccccc1)c1ccccc1 | > 100 µM
CS(=O)(=O)CC(=O)c1ccccc1 | > 100 µM
COc1ccccc1NC(=O)c1nc2ccc([N+](=O)[O-])cc2nc1C | > 100 µM
CCOC(=O)c1c2c(c(O)c3ccccc3c(O)n(Cc3ccccc3)c1C)C(=O)C=CC2=O | > 100 µM
COc1cc([C@@H]2c3cc4c(cc3[C@@H](Nc3ccc(C(=O)N[C@H]5CCc6cc(OC)c(OC)c(OC)c6-c6ccc(SC)c(=O)cc65)cc3)[C@H]3COC(=O)[C@H]23)OCO4)cc(OC)c1O | > 100 µM
CCOC(=O)C(NC(=O)c1ccccc1)(Nc1ccc(Cl)cc1C(F)(F)F)C(F)(F)F (stereo not given) | > 100 µM

Asked: TGI lookup needed for NC12CCC(CC1=O)C2 (stereo not given) , thanks.
Given back: > 100 µM

Asked: Entry Cc1ccc2c(c1)S(=O)(=O)c1ccc3ccccc3c1N2 please
Given back: > 100 µM

Asked: Entry CC(=O)OC1COC(N2C(=O)C(=O)c3cc(Br)ccc32)C(OC(C)=O)C1OC(C)=O (stereo not given) please
Given back: > 100 µM

Asked: Entry Cc1ccc(S(=O)OCC23CC4CC(CC(C4)C2)C3)cc1 (stereo not given) please
Given back: > 100 µM

Asked: Entry O=C1CSC(c2c[nH]c3ccccc23)N1c1ccccc1[N+](=O)[O-] (stereo not given) please
Given back: > 100 µM

Asked: Entry O=c1[nH]c(=O)n(C2OC(CO)C(O)C2O)cc1Oc1ccccc1 (stereo not given) please
Given back: > 100 µM

Asked: Entry CC(=O)OC12c3ccccc3-c3ccccc3C1C1C(=O)OC(=O)C12 (stereo not given) please
Given back: > 10 µM

Asked: Entry O=c1ssc(Cl)c1Cl please
Given back: > 10 µM

Asked: Entry COc1ccc(C2=NN(C(=O)c3cc(OC)c(OC)c(OC)c3)C(c3ccc(N(C)C)cc3)C2)cc1 (stereo not given) please
Given back: > 100 µM

Asked: Entry CSC12c3cc(C)n(-c4ccccc4)c3CC(C)(C)CN1C(=O)C2Oc1ccccc1 (stereo not given) please
Given back: > 100 µM

Asked: Entry Cc1cc(C)nc(NS(=O)(=O)c2ccc(Nc3c4ccc(Cl)cc4nc4c(C(=O)NCCN(C)C)cccc34)cc2)n1 please
Given back: > 100 µM

---

# Tested on: K-562 leukemia
# ASSAY REMARKS: NCI tumour cell line growth inhibition, 48 h
# TGI per record follows

Solved cases below.
Cc1cc(C(C)(C)C)cc(CNC2CCCCC2)c1O | 51.3 µM
Brc1ccc2c(c1)-c1nc3nc4c(cc3cc1CC2)CCc1ccc(Br)cc1-4 | > 100 µM
COc1ccc(/C=C2\C=C(c3ccccc3)N(CCc3ccccc3)C2=O)cc1OC | > 100 µM
O=C(O)CCCc1ccc2ccccc2c1 | > 100 µM
C/C(=N\Nc1nc2cccnc2s1)c1ccccn1 | > 100 µM

Asked: TGI lookup needed for O=C(Nc1ccccc1)c1cc(S(=O)(=O)Nc2nc3ccccc3o2)c(SCc2ccccc2)cc1Cl , thanks.
Given back: 68.7 µM

Asked: Entry CN1CCN(C)C12C=CC=CC21CC1 please
Given back: > 100 µM

Asked: Entry Fc1ccc(-c2sc(-c3cccs3)cc2Cc2cccs2)cc1 please
Given back: > 100 µM

Asked: Entry OCc1ccc(N2CCc3ccccc3C2)cc1Cl please
Given back: 19 µM

Asked: Entry CN(Cc1cc(Cl)cc(Cl)c1O)Cc1c(O)ccc2ccccc12 please
Given back: 61 µM

Asked: Entry Ic1cc2c(cc1C1SCCCS1)OCO2 please
Given back: > 100 µM

Asked: Entry CC1(C)[C@@H](OC(=O)CCC(=O)O)CC[C@]2(C)[C@H]3C(=O)C=C4[C@@H]5C[C@@](C)(C(=O)O)CC[C@]5(C)CC[C@@]4(C)[C@]3(C)CC[C@@H]12 please
Given back: 230 µM

Asked: Entry CSc1nc2c(ncn2C2OCC(O)C(O)C2O)c(=O)n1C (stereo unspecified) please
Given back: > 100 µM

Asked: Entry CCOP(=O)(OCC)/C(C#N)=C/c1cnc[nH]1 please
Given back: > 100 µM

Asked: Entry c1ccc2c(c1)N=C(c1cccc3ccccc13)CC(c1ccc3c(c1)OCO3)S2 (stereo unspecified) please
Given back: > 100 µM

Asked: Entry CC1OC(OC2C(OC3CCC4(C)C(CCC5(C)C4CC=C4C6CC(C)(C)CCC6(C(=O)O)CCC45C)C3(C)CO)OCC(O)C2O)C(O)C(O)C1O (stereo unspecified) please
Given back: 44.7 µM

Asked: Entry NCCNCc1c2ccccc2c(CNCCN)c2ccccc12 please
Given back: 36.7 µM

Asked: Entry CCCCCC/C=C1\CCC(CN2CCOCC2)C1=O (stereo unspecified) please
Given back: 16.4 µM

---

# TGI per record follows
# System: UO-31 renal
# ASSAY REMARKS: NCI tumour cell line growth inhibition, 48 h
Where a SMILES comes first, the peptide text is derived from it. The star is where a group is joined. Fmoc = O=C(OCC1c2ccccc2-c2ccccc21)*; Boc = CC(C)(C)OC(=O)*

Solved cases below.
CC(C)(C)OC(=O)NCCCCC(NC(=O)C(Cc1c[nH]c2ccccc12)NC(=O)OCC1c2ccccc2-c2ccccc21)C(=O)N1CCCC1C(=O)NCC(N)=O (stereo unspecified) (Fmoc-WK(Boc)PG-NH2; configuration not given here) | > 100 µM
C1CC[C@H]2SSC3CCCC[C@H]3SSC2C1 (stereo partly specified) | > 100 µM
COc1cc(-c2c(C#N)c(N)nc(N3CCOCC3)c2C#N)cc(OC)c1OC | > 100 µM
CCOP(=O)(OCC)/C(C#N)=C/c1cnc[nH]1 | > 100 µM
COC(=O)C1=C(C)C=C(N2CCOCC2)C(C(=O)OC)C1c1ccccc1 (stereo unspecified) | > 10 µM

Asked: TGI lookup needed for NCCNCc1c2ccccc2c(CNCCN)c2ccccc12 , thanks.
Given back: > 100 µM

Asked: Entry COc1ccc(C2CC3(c4ccccc4)ON=C(c4ccccc4)N3c3ccccc3S2)cc1 (stereo unspecified) please
Given back: > 100 µM

Asked: Entry O=S(=O)(/N=c1/scc(-c2ccccc2)n1-c1ccccc1)c1ccc(N2N=C3c4ccccc4CC3C2c2cccs2)cc1 (stereo unspecified) please
Given back: > 100 µM

Asked: Entry CC(C)(CCCCC(C)(C)[N+](C)(C)C)[N+](C)(C)C please
Given back: > 100 µM

Asked: Entry CC(=O)Nc1nnc(S(C)(=O)=O)s1 please
Given back: > 100 µM

Asked: Entry NCC1OC(OC2C(CO)OC(OC3C(O)C(N)CC(N)C3OC3OC(CO)C(O)CC3N)C2O)C(N)C(O)C1OC1OC(CO)C(O)C(O)C1O (stereo unspecified) please
Given back: > 50 µg/mL

---

# TGI per record follows
# Test system: SN12C renal
# ASSAY REMARKS: NCI tumour cell line growth inhibition, 48 h

Solved cases below.
O=C1CSC(c2c[nH]c3ccccc23)N1c1ccccc1[N+](=O)[O-] (stereo not drawn) | > 100 µM
Nc1nc2c(ncn2Cc2ccccc2CO)c(=O)[nH]1 | > 100 µM

Let us move to another entry and its TGI.
Asked: TGI lookup needed for COc1cc2c(cc1OC)C1Cc3cc(OC)c(OC)cc3C(C2)N1C , thanks.
Given back: > 100 µM

---

# TGI per record follows
# Test system: ACHN renal
# ASSAY REMARKS: NCI tumour cell line growth inhibition, 48 h

Solved cases below.
CC(OC(=O)C(CC(=O)OC(C)(C)C)NC(=O)OC(C)(C)C)C(=O)OCc1ccccc1 (stereo unspecified) | > 100 µM
COc1ccc(/C=C/C(=O)c2ccc(OC)c(OC)c2)cc1O | > 100 µM
NCC1OC(OC2C(CO)OC(OC3C(O)C(N)CC(N)C3OC3OC(CO)C(O)CC3N)C2O)C(N)C(O)C1OC1OC(CO)C(O)C(O)C1O (stereo unspecified) | > 50 µg/mL
CSC12c3cc(C)n(-c4ccccc4)c3CC(C)(C)CN1C(=O)C2Oc1ccccc1 (stereo unspecified) | > 100 µM
CSc1ncc2c(n1)sc1c(=O)n(-c3ccccc3)cnc12 | > 100 µM
Nc1nc2c(ncn2Cc2ccccc2CO)c(=O)[nH]1 | > 100 µM
CN1CN(c2ccccc2)C2(CCN(CCC3COc4ccccc4O3)CC2)C1=O (stereo unspecified) | > 100 µM
COc1ccc2nc3cc(Cl)ccc3c(Sc3ccc([N+](=O)[O-])cc3)c2c1 | > 10 µM

Asked: TGI lookup needed for COC1=CC(c2ccc[nH]2)=N/C1=C\c1[nH]c(C)c(C(=O)CCCCC(=O)Oc2ccc3c(c2)CCC2C3CC[C@]3(C)[C@@H](O)CC[C@@H]23)c1C (stereo partly specified) , thanks.
Given back: > 100 µM

Asked: Entry Cc1cc(N(CCCl)CCCl)ccc1C=Nc1ccc2ccccc2c1 please
Given back: > 100 µM

Asked: Entry Nc1cc(=O)n(-c2ccccc2)c(=S)n1-c1ccccc1 please
Given back: > 100 µM

Asked: Entry CC1C(OC2O[C@@H]3O[C@@]4(C)CC[C@H]5[C@H](C)CC[C@@H](C2C)[C@@]35O4)O[C@@H]2O[C@@]3(C)CC[C@H]4[C@H](C)CC[C@@H]1[C@@]24O3 (stereo partly specified) please
Given back: > 50 µM

Asked: Entry Cc1ccc(S(=O)OCC23CC4CC(CC(C4)C2)C3)cc1 (stereo unspecified) please
Given back: > 100 µM
